- MEASUREMENT CONDITIONS: Crystal; DTA
± gives the expanded uncertainty stated by the source.
READOUT TYPE: Normal melting temperature
Please format your answer as a value with the unit trailing.

Field: example entries. Status: answers known.
COMPOUND | READOUT TYPE | RESULT
O=C(O)c1cccc(I)c1 [3-iodobenzoic acid] | Normal melting temperature | 185.8 ± 0.4 °C
O=C(O)c1cccc(F)c1 [3-fluorobenzoic acid] | Normal melting temperature | 122.8 ± 0.4 °C
O=C(O)c1ccccc1F [2-fluorobenzoic acid] | Normal melting temperature | 123.6 ± 0.4 °C
O=C(O)c1ccccc1I [2-iodobenzoic acid] | Normal melting temperature | 161.4 ± 0.4 °C
O=C(O)c1ccc(I)cc1 [4-iodobenzoic acid] | Normal melting temperature | 270.8 ± 0.4 °C

Field request: Normal melting temperature | item: O=C(O)c1ccc(F)cc1 [4-fluorobenzoic acid]
183.0 ± 0.4 °C

---

- ASSAY EXPLANATION: Molar enthalpy of transition or fusion
- MEASUREMENT CONDITIONS: Crystal; DSC
hey, just use Criterion met if measured Molar enthalpy of transition or fusion is less than 7 kcal/mol, otherwise Criterion not met

Is Molar enthalpy of transition or fusion strictly under 7 kcal/mol for the entry "O=C(O)c1ccc(F)cc1" ?
Criterion met

Is Molar enthalpy of transition or fusion strictly under 7 kcal/mol for the entry "O=C(O)c1cccc(I)c1" ?
Criterion met

Is Molar enthalpy of transition or fusion strictly under 7 kcal/mol for the entry "O=C(O)c1ccccc1I" ?
Criterion met

---

- ASSAY EXPLANATION: Molar enthalpy of transition or fusion
- MEASUREMENT CONDITIONS: Crystal; DSC
READOUT TYPE: Molar enthalpy of transition or fusion (kcal/mol)
Give bare numbers, in kcal/mol.

Field: example entries. Status: answers known.
CPD SMILES | VALUE UNIT | Molar enthalpy of transition or fusion
O=C(O)c1cccc(F)c1 | kcal/mol | 4.42
O=C(O)c1ccccc1F | kcal/mol | 4.85

Field request: Molar enthalpy of transition or fusion | item: "O=C(O)c1ccc(I)cc1"
8.05
